Below, each of the compounds is paired with its reported Comparison with the Binding of Phenylalanine value.
Biological target: L1 transport system (large neutral amino acid carrier, L1-system carrier) (Rattus norvegicus, UniProt Q63016)
Construct: functionality of their endogenous transporters such as the L1-system carrier; endogenous in cells; host or cells: rat primary cerebrovascular (brain microcapillary) endothelial cells, RBEC
Sequence (Q63016 whole entry): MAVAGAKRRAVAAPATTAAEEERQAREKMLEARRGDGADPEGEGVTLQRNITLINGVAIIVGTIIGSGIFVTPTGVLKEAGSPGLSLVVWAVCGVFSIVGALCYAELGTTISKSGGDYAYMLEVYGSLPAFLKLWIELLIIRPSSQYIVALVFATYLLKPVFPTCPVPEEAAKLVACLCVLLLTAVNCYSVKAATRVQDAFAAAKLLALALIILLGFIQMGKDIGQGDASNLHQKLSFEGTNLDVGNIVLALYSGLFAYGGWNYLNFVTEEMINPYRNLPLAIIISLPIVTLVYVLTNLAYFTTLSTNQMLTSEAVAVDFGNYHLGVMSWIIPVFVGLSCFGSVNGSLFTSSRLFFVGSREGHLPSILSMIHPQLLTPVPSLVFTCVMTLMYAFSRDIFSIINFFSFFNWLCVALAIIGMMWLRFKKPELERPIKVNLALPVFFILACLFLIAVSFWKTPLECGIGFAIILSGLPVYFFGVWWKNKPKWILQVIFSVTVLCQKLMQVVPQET
Sequence (Q794F9 whole entry partner): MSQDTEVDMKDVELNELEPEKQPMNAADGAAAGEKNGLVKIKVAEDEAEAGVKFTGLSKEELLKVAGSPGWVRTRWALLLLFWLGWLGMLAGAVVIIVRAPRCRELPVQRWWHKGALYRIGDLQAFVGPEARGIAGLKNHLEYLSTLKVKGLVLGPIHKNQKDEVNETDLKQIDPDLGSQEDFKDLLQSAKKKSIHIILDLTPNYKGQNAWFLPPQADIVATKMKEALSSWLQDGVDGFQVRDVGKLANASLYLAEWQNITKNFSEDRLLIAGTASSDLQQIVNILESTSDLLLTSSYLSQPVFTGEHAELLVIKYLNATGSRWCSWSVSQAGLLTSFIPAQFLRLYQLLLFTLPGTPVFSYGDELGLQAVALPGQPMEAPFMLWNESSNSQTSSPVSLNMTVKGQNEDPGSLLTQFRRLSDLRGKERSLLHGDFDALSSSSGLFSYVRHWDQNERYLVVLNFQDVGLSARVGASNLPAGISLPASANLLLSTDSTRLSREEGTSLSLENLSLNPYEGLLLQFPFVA
Assay: Competitive binding assay to the brain L1 transport system (L-[U-14C]phenylalanine on rat primary cerebrovascular endothelial cells)
Settings: 10^−4 M
parameter measured: Comparison with the Binding of Phenylalanine

| compound | endpoint result |
| --- | --- |
| NC(Cc1ccc(-c2ccc(CN3CCN(c4ncccn4)CC3)cc2)cc1)C(=O)O (stereo not shown) | 0 (X < 0 Rank 0) |
| O=C(NC(Cc1cccc(CSc2nccc(O)n2)c1)C(=O)O)NC(c1ccccc1)c1ccccc1 (stereo not shown) | 1 (0 < X < 10 Rank 1) |
| N[C@@H](Cc1ccccc1)C(=O)NC(Cc1cccc(CSc2nnnn2-c2ccc(O)cc2)c1)C(=O)O (stereo partly shown) | 0 (X < 0 Rank 0) |
| CCOC(=O)c1cnc(SCc2cccc(CC(N)C(=O)O)c2)[nH]c1=O (stereo not shown) | 2 (10 < X < 20 Rank 2) |

---

Below, each of the compounds is paired with its reported Comparison with the Binding of Phenylalanine value.
Target: L1 transport system (large neutral amino acid carrier, L1-system carrier) (Rattus norvegicus, UniProt Q63016)
Construct: functionality of their endogenous transporters such as the L1-system carrier; endogenous in cells; host or cells: rat primary cerebrovascular (brain microcapillary) endothelial cells, RBEC
Assay: Competitive binding assay to the brain L1 transport system (L-[U-14C]phenylalanine on rat primary cerebrovascular endothelial cells)
Settings: 10^−6 M
parameter measured: Comparison with the Binding of Phenylalanine

| compound | endpoint result |
| --- | --- |
| NC(Cc1cccc(-c2cccc(N3CCc4ccccc4C3)c2)c1)C(=O)O (centres unmarked) | 1 (0 < X < 10 Rank 1) |
| NC(=O)C(N)Cc1cccc(CSc2nccc(C(F)(F)F)n2)n1 (centres unmarked) | 0 (X < 0 Rank 0) |
| NC(=O)C(N)Cc1cccc(CSc2nccc(N)n2)n1 (centres unmarked) | 3 (X > 20 Rank 3) |
| N[C@@H](Cc1ccccc1)C(=O)NC(Cc1cccc(CSc2nc3ccccc3o2)n1)C(=O)O (some centres unmarked) | 3 (X > 20 Rank 3) |
| N[C@@H](Cc1ccccc1)C(=O)NC(Cc1cccc(CSc2nnc(-c3ccccc3)o2)c1)C(=O)O (some centres unmarked) | 1 (0 < X < 10 Rank 1) |
| NC(Cc1ccc(-c2ccc(CSc3ccc4ccccc4n3)cc2)cc1)C(=O)O (centres unmarked) | 1 (0 < X < 10 Rank 1) |
| NC(Cc1cccc(CSc2nnc(-c3ccncc3)o2)c1)C(=O)O (centres unmarked) | 3 (X > 20 Rank 3) |
| COc1ccc2[nH]c(SCc3ccc(-c4ccc(CC(N)C(=O)O)cc4)cc3)nc2c1 (centres unmarked) | 0 (X < 0 Rank 0) |

---

Molecular target: L1 transport system (large neutral amino acid carrier, L1-system carrier) (Rattus norvegicus, UniProt Q63016)
Construct: functionality of their endogenous transporters such as the L1-system carrier; endogenous in cells; host or cells: rat primary cerebrovascular (brain microcapillary) endothelial cells, RBEC
Assay: Competitive binding assay to the brain L1 transport system (L-[U-14C]phenylalanine on rat primary cerebrovascular endothelial cells)
Conditions: 10^−4 M
parameter measured: Comparison with the Binding of Phenylalanine

| compound | endpoint result |
| --- | --- |
| NC(=O)C(N)Cc1cccc(CSc2nnc(-c3ccncc3)o2)c1 (stereo not drawn) | 0 (X < 0 Rank 0) |
| Cc1ccnc(SCc2cccc(CC(N)C(=O)O)n2)n1 (stereo not drawn) | 0 (X < 0 Rank 0) |
| NC(Cc1ccc(-c2ccc(CN3CC=CCC3)cc2)cc1)C(=O)O (stereo not drawn) | 0 (X < 0 Rank 0) |
| N[C@@H](Cc1ccccc1)C(=O)NC(Cc1cccc(CSc2nc3ccccc3[nH]2)n1)C(=O)O (stereo partly drawn) | 0 (X < 0 Rank 0) |
| Nc1ccnc(SCc2cccc(CC(N)C(=O)O)n2)n1 (stereo not drawn) | 2 (10 < X < 20 Rank 2) |
| O=C(Nc1ccc(-c2ccccc2)cc1)NC(Cc1cccc(CSc2nnnn2-c2ccc(O)cc2)c1)C(=O)O (stereo not drawn) | 0 (X < 0 Rank 0) |
| NC(=O)C(N)Cc1cccc(CSc2ncc[nH]2)c1 (stereo not drawn) | 0 (X < 0 Rank 0) |
| Cn1cnnc1SCc1cccc(CC(N)C(=O)O)c1 (stereo not drawn) | 0 (X < 0 Rank 0) |
| Cn1cnnc1SCc1ccc(-c2ccc(CC(N)C(=O)O)cc2)cc1 (stereo not drawn) | 2 (10 < X < 20 Rank 2) |

---

Below, each of the compounds is paired with its reported Comparison with the Binding of Phenylalanine value.
Target: L1 transport system (large neutral amino acid carrier, L1-system carrier) (Rattus norvegicus, UniProt Q63016)
Construct: functionality of their endogenous transporters such as the L1-system carrier; endogenous in cells; host or cells: rat primary cerebrovascular (brain microcapillary) endothelial cells, RBEC
Assay: Competitive binding assay to the brain L1 transport system (L-[U-14C]phenylalanine on rat primary cerebrovascular endothelial cells)
Details: 10^−4 M
parameter measured: Comparison with the Binding of Phenylalanine

| compound | endpoint result |
| --- | --- |
| CC(=O)c1ccc(N2CCN(Cc3cccc(CC(N)C(=O)O)c3)CC2)cc1 (centres unmarked) [Compound 112] | 2 (10 < X < 20 Rank 2) |
| NC(Cc1ccc(-c2ccc(CSc3nc(-c4ccccc4)c(-c4ccccc4)[nH]3)cc2)cc1)C(=O)O (centres unmarked) [Compound 149] | 3 (X > 20 Rank 3) |
| NC(Cc1cccc(CSc2nc(-c3ccccc3)c(-c3ccccc3)o2)c1)C(=O)O (centres unmarked) [Compound 104] | 2 (10 < X < 20 Rank 2) |
| CN(C)CCn1nnnc1SCc1ccc(-c2ccc(CC(N)C(=O)O)cc2)cc1 (centres unmarked) [Compound 118] | 3 (X > 20 Rank 3) |
| NC(Cc1cccc(CSc2nc3cc([N+](=O)[O-])ccc3[nH]2)n1)C(=O)O (centres unmarked) [Compound 94] | 1 (0 < X < 10 Rank 1) |
| CN(C)CCn1nnnc1SCc1cccc(CC(N)C(=O)O)c1 (centres unmarked) [Compound 73] | 1 (0 < X < 10 Rank 1) |
| NC(Cc1ccc(-c2ccc(CN3CCN(c4cccc(Cl)c4)CC3)cc2)cc1)C(=O)O (centres unmarked) [Compound 116] | 1 (0 < X < 10 Rank 1) |
| O=C(NC(Cc1cccc(CSc2nnc(-c3ccccc3)[nH]2)c1)C(=O)O)NC(c1ccccc1)c1ccccc1 (centres unmarked) [Compound 57] | 3 (X > 20 Rank 3) |

---

Molecular target: L1 transport system (large neutral amino acid carrier, L1-system carrier) (Rattus norvegicus, UniProt Q63016)
Construct: functionality of their endogenous transporters such as the L1-system carrier; endogenous in cells; host or cells: rat primary cerebrovascular (brain microcapillary) endothelial cells, RBEC
Assay: Competitive binding assay to the brain L1 transport system (L-[U-14C]phenylalanine on rat primary cerebrovascular endothelial cells)
Conditions: 10^−5 M
Below, each of the compounds is paired with its reported Comparison with the Binding of Phenylalanine value.
parameter measured: Comparison with the Binding of Phenylalanine

| compound | endpoint result |
| --- | --- |
| O=C(Nc1ccc(-c2ccccc2)cc1)NC(Cc1cccc(CSc2nc3ccccc3o2)n1)C(=O)O (stereo not drawn) | 0 (X < 0 Rank 0) |
| NC(=O)C(N)Cc1cccc(CSc2nnc(-c3ccncc3)o2)c1 (stereo not drawn) | 1 (0 < X < 10 Rank 1) |
| NC(Cc1cccc(-c2cccc(N3CCc4ccccc4C3)c2)c1)C(=O)O (stereo not drawn) | 0 (X < 0 Rank 0) |
| NC(=O)C(N)Cc1cccc(CSc2nc3ccccc3o2)n1 (stereo not drawn) | 0 (X < 0 Rank 0) |
| NC(Cc1cccc(CSc2nc(-c3ccccc3)c(-c3ccccc3)o2)c1)C(=O)O (stereo not drawn) | 3 (X > 20 Rank 3) |
| CCOC(=O)c1c[nH]c(Sc2cccc(-c3cccc(CC(N)C(=O)O)c3)c2)nc1=O (stereo not drawn) | 2 (10 < X < 20 Rank 2) |
| N#CC1(c2ccccc2)CCN(Cc2cccc(CC(N)C(=O)O)c2)CC1 (stereo not drawn) | 1 (0 < X < 10 Rank 1) |
| NC(Cc1cccc(CSc2cncc3c(C(F)(F)F)cccc23)n1)C(=O)O (stereo not drawn) | 0 (X < 0 Rank 0) |
| NC(Cc1cccc(-c2cccc(N3CCN(c4ccccn4)CC3)c2)c1)C(=O)O (stereo not drawn) | 0 (X < 0 Rank 0) |

---

Test system: HUVEC
Assay: Cellular toxicity assay on HUVEC (WST-1 viability)
Type: cell-based, human
Settings: 24 hours, 10^−6 M, <75% considered toxic

| compound | Viability (%) |
| --- | --- |
| O=C(O)C(Cc1cccc(CSc2nnc[nH]2)n1)NS(=O)(=O)c1ccc(F)cc1 (stereo not shown) | 67 |
| O=C(NC(Cc1cccc(CSc2nnc[nH]2)n1)C(=O)O)NC(c1ccccc1)c1ccccc1 (stereo not shown) | 87 |
| NC(Cc1cccc(CSc2nc3ccccc3o2)n1)C(=O)O (stereo not shown) | 8 |
| O=C(NC(Cc1cccc(CSc2ncnc3[nH]ncc23)n1)C(=O)O)NC(c1ccccc1)c1ccccc1 (stereo not shown) | 109 |

Values were extracted from patent US20060167057A1.
